Tested system: Recombinant human his-tagged IGF R extracellular domain protein (human) (UniProt P08069)
Experiment: SPR, Ab captured via anti-huIgG Fc, dissociation at pH 6
Readout kind: koff (s⁻¹)
Please reply with the bare figure in s⁻¹ and do not write the unit itself.

Here's what some known entries look like.
Which koff value is on record for VRDN-02031 (antibody, V domains shown) VH: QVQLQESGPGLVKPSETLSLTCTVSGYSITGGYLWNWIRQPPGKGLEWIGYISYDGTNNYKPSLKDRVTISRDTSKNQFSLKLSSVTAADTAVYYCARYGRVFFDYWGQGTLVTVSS VL: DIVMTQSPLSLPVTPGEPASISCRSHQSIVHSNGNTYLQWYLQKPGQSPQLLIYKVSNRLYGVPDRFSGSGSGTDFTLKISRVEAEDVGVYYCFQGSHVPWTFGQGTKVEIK ?
0.000115

Try this binder next: VRDN-02064 (antibody, V domains shown) VH: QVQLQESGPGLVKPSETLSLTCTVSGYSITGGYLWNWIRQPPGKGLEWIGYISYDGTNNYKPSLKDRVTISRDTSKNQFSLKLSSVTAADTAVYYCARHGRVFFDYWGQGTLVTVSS VL: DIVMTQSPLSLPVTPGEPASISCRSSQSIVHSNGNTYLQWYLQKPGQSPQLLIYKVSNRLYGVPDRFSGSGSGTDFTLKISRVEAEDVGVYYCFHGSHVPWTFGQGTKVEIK
2.27e-05

Shift focus to the following entry.
Which koff value is on record for VRDN-02044 (antibody, V domains shown) VH: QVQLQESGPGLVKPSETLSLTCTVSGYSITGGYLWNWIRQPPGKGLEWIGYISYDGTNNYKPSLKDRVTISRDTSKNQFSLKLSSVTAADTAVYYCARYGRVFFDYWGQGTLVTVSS VL: DIVMTQSPLSLPVTPGEPASISCRSSQSIVHSNGNTYLQWYLQKPGQSPQLLIYHVSNRLYGVPDRFSGSGSGTDFTLKISRVEAEDVGVYYCFQGSHVPWTFGQGTKVEIK ?
6.27e-05
